System: OVCAR-5
ASSAY METHOD TEXT: NCI tumour cell line growth inhibition, 48 h
Active and inactive are the calls of the source. Cut-off read from the data, not from the text of the source: active = GI50 up to about 1.1 µM and inactive = higher.
Classes to choose from: active, inactive

COMPOUND | ASSIGNED CLASS
COc1ccc(N2C(=O)C(Cl)C2c2cc3cc(Br)ccc3nc2Cl)cc1 (stereo unspecified) | inactive

// query State the result this test recorded for CCOC(=O)/C(SC#N)=C(/N)N1CCCC1 .
// result inactive

// query State the result this test recorded for CN(C)/N=N/c1ccc(NC=O)cc1 .
// result inactive

// query State the result this test recorded for NC(=O)c1cc([N+](=O)[O-])cc([N+](=O)[O-])c1 [NITROMIDE] .
// result inactive

* * *

System: NCI/ADR-RES
ASSAY METHOD TEXT: NCI tumour cell line growth inhibition, 48 h
Activity calls are given as the source filed them. No stated cut-off is given here; in the data, active = GI50 up to about 1.1 µM and inactive = higher.
MEASURED ATTRIBUTE: GI50

Recorded GI50, per entry:
COMPOUND | VALUE MEASURED
CC(NNC(=O)c1cc[n+]([BH2-]C#N)cc1)c1ccc(Cl)cc1Cl (stereo unspecified) | 31.6 µM (inactive)
Cc1nc2ccccc2n1CCc1nc2ccccc2[nH]1 | > 100 µM (inactive)
CSC1(SC2=NCCN2)SC2(NCCN2)S1 | 31.8 µM (inactive)
Cn1c(=O)c2nc3c(=O)n(C)c(=O)n(CC(N)=O)c3nc2n(C)c1=O | > 100 µM (inactive)
CC1=CC2(C)C=C[C@@H]1C(=O)[C@@]1(C)CC[C@@](O)(C(C)C)[C@H]1CC2 | 20.2 µM (inactive)

Please turn your attention to the following entry.
// query Field request: GI50 | item: CCOC(=O)c1csc(NC(=O)C(C)N2CCCCC2)n1 (stereo unspecified)
// result > 100 µM (inactive)

* * *

Tested on: SK-MEL-28
ASSAY METHOD TEXT: NCI tumour cell line growth inhibition, 48 h
The source made the active and inactive calls. No stated cut-off is given here; in the data, active = GI50 up to about 1.1 µM and inactive = higher.
The following compounds are shown together with reported GI50 values.

Recorded GI50, per entry:
COMPOUND | SYSTEM TESTED | VALUE MEASURED
CC(=O)OC1C(O)COC(O[C@H]2CC[C@]34C[C@]35CC[C@]3(C)C([C@@]6(C)CC[C@@H](C(C)(C)O)O6)[C@@H](O)C[C@@]3(C)C5C[C@H](OC3OCC(O)C(O)C3O)[C@H]4C2(C)C)C1OC1OCC(O)C(O)C1O (stereo not given in full) | SK-MEL-28 | > 100 µM (inactive)
COc1ccc(C2=C(N)c3c(Cl)cccc3C2=O)cc1 | SK-MEL-28 | > 100 µM (inactive)
CC1(C)CC(=O)C(=CNc2nc(-c3ccccc3)cs2)C(=O)C1 | SK-MEL-28 | 26.7 µM (inactive)
C/C(=N\Nc1ccccc1Br)c1cccc(/C(C)=N/Nc2ccccc2Br)n1 | SK-MEL-28 | > 100 µM (inactive)

// query Field request: GI50 | item: CC(C)(CO)N1C(=O)c2ccccc2C1(O)c1ccc(Cl)cc1 (stereo not given)
// result > 100 µM (inactive)

* * *

System: CCRF-CEM
ASSAY METHOD TEXT: NCI tumour cell line growth inhibition, 48 h
Active and inactive are the calls of the source. Cut-off read from the data, not from the text of the source: active = GI50 up to about 1.1 µM and inactive = higher.
MEASURED ATTRIBUTE: GI50

Recorded GI50, per entry:
MOLECULE | GI50
C=CCN1C(=O)CC1N(CC=C)S(=O)(=O)c1ccc(C)cc1 (stereo not given) | > 100 µM (inactive)
Cc1c2ccncc2c(C)c2c1[nH]c1ccccc12 [ELLIPTECINE] | 0.411 µM (active)
O=c1cc(-c2ccccc2F)[nH]c2ccc(N3CCCC3)cc12 | 0.0461 µM (active)

Please turn your attention to the following entry.
// query Field request: GI50 | item: CCN(CC)CCCNc1ncc(C)c2c1c1ccc3c(O)cccc3c1n2C
// result 0.392 µM (active)

* * *

Tested on: KM12
ASSAY METHOD TEXT: NCI tumour cell line growth inhibition, 48 h
Activity calls are given as the source filed them. No stated cut-off is given here; in the data, active = GI50 up to about 1.1 µM and inactive = higher.
The following molecules are shown together with reported GI50 values.

MOLECULE | GI50
CC12CC3CC(C1)CC(N=[N+]=[N-])(C3)C2 | > 100 µM (inactive)
O=C(Cc1nc2ccccc2s1)C(=O)Nc1cccc(C(F)(F)F)c1 | > 100 µM (inactive)
CN(C)N1C(=O)S/C(=C\c2ccc([N+](=O)[O-])cc2)C1=O | > 100 µM (inactive)

// query Field request: GI50 | item: CSS(C)(=O)=O
// result 34.3 µM (inactive)

// query Field request: GI50 | item: O=c1cc(N2CCCC2)[nH]c(=O)n1-c1ccccc1
// result > 100 µM (inactive)

// query Field request: GI50 | item: Cc1ccccc1NC(=O)c1nc(S)nc(N)c1-c1ccccc1C
// result > 100 µM (inactive)

// query Field request: GI50 | item: Cc1c2cc[n+](C)cc2c(C)c2c1[nH]c1ccc(OC(C)(C)C)cc12
// result > 100 µM (inactive)

// query Field request: GI50 | item: N#C/C(=C\c1cccc(O)c1)C(N)=O
// result > 100 µM (inactive)

* * *

The following compounds are shown together with reported GI50 values.
Test system: KM12
ASSAY METHOD TEXT: NCI tumour cell line growth inhibition, 48 h
The source made the active and inactive calls. Cut-off read from the data, not from the text of the source: active = GI50 up to about 1.1 µM and inactive = higher.

COMPOUND | VALUE MEASURED
Oc1ccc(/C=N/c2ccccc2O)cc1 | 75.3 µM (inactive)
O=C1N=CN=C2C=CC(Cl)=C(I)C12 (centres undefined) | > 100 µM (inactive)
OCCN1CCN(CCO)Cc2ccccc2OCCOc2ccccc2C1 | > 100 µM (inactive)

Please turn your attention to the following entry.
// query Field request: GI50 | item: COc1ccc2c3c1O[C@H]1[C@@H](O)CC[C@@]4(O)[C@@H](C2)N(C)CC[C@]314
// result > 100 µM (inactive)

* * *

Test system: OVCAR-4
ASSAY METHOD TEXT: NCI tumour cell line growth inhibition, 48 h
Active and inactive are the calls of the source. No stated cut-off is given here; in the data, active = GI50 up to about 1.1 µM and inactive = higher.
MEASURED ATTRIBUTE: GI50

COMPOUND | SYSTEM TESTED | GI50
COc1ccc(C(c2ccc(C(C)C)cc(=O)c2O)c2ccc3cccnc3c2O)cc1 (stereo not given) | OVCAR-4 | 2.88 µM (inactive)

// query Field request: GI50 | item: CP(=O)(O)C(N)c1ccccc1 (stereo not given)
// result > 100 µM (inactive)

// query Field request: GI50 | item: O=S(=O)(O)c1ccc2c(/N=N/c3cccc4ccccc34)c(O)c(S(=O)(=O)O)cc2c1
// result > 100 µM (inactive)

// query Field request: GI50 | item: CC(NO)/C(=N/O)c1ccco1 (stereo not given)
// result > 10 µM (inactive)

// query Field request: GI50 | item: CCOC(=O)c1c(-c2ccc(OC)cc2)c(C#N)c(=S)n(C2OC(COC(C)=O)C(OC(C)=O)C(OC(C)=O)C2OC(C)=O)c1C (stereo not given)
// result 20.9 µM (inactive)

// query Field request: GI50 | item: c1ccc(-c2ccc(-c3ccc(C4=NCCN4)cc3)o2)cc1
// result 6.11 µM (inactive)

* * *

Tested on: RPMI-8226
ASSAY METHOD TEXT: NCI tumour cell line growth inhibition, 48 h
Active and inactive are the calls of the source. No stated cut-off is given here; in the data, active = GI50 up to about 1.1 µM and inactive = higher.
Classes to choose from: active, inactive

Illustrative cases are given below, each with its answer.
COMPOUND | SYSTEM TESTED | ASSIGNED CLASS
CC(C)=CC(=O)N1CCN(C(=O)C=C(C)C)CC1 | RPMI-8226 | inactive
CCCNC(=O)NNC(=O)c1c[nH]c2nc(C)ccc2c1=O | RPMI-8226 | inactive
C#C[C@]1(O)CC[C@H]2[C@@H]3CCC4=C/C(=N/OCCN(C)C)CC[C@]4(C)[C@H]3CC[C@@]21C | RPMI-8226 | inactive
COc1ccc(N(CC(=O)O)S(=O)(=O)c2ccccc2)cc1 | RPMI-8226 | inactive

// query State the result this test recorded for CC(C)CC1[C@@H](OCc2ccccc2)COS(=O)(=O)N1Cc1ccccc1 (stereo not given in full) .
// result inactive

// query State the result this test recorded for Cc1nnc2nc(-c3ccc(Cl)cc3Cl)cc(-c3ccc(Cl)cc3)n12 .
// result inactive

// query State the result this test recorded for C/C(=N/NC(=S)Nc1ccc([N+](=O)[O-])cc1)c1cccc(/C(C)=N\NC(=S)Nc2ccc([N+](=O)[O-])cc2)n1 .
// result active

// query State the result this test recorded for Nc1nc(N)nc(CC(=O)O)n1 .
// result inactive

// query State the result this test recorded for NC1C(O)C(O)C(CO)OC1n1cc(F)c(=O)[nH]c1=O (stereo not given) .
// result inactive

// query State the result this test recorded for Cc1ccc(S(=O)(=O)NC(=O)NC(CCC(N)=O)C(=O)O)cc1 (stereo not given) .
// result inactive
